target: UniProt:P00747; assay: Inhibition of human plasma plasmin using pyroGlu-Pro-Arg-p-NA.HCl as substrate preincubated for 15 mins prior substrate addition measured for 10 mins by spectrophotometry
Sequence (P00747 97-580 limits assumed): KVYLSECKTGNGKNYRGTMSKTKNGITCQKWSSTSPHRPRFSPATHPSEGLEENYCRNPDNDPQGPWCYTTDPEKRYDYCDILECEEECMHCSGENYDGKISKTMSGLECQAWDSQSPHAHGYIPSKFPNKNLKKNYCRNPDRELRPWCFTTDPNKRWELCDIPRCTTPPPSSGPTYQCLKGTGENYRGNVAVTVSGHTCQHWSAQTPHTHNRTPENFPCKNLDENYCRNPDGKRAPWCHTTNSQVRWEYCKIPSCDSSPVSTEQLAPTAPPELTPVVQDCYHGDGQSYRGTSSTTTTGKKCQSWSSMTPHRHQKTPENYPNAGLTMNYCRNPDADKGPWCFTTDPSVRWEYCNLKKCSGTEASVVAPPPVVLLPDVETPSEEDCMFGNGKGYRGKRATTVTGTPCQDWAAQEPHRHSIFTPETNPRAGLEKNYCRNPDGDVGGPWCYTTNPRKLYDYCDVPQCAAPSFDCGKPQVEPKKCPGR
Sequence (P00747 581-810 limits assumed): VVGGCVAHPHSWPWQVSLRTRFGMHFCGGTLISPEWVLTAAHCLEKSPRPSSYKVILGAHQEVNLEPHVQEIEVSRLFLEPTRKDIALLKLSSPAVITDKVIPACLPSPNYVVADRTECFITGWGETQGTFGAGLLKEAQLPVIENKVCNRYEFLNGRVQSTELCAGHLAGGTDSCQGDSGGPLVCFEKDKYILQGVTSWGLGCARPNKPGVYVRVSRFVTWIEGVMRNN

input-smiles: [H]/N=C(\N)c1ccc2cc(C(=O)Nc3ccc(CN)cc3)ccc2c1
target-desc: UniProt:P00747
IC50: > 62 µM
--
input-smiles: COC(=O)c1cccc(-c2ccc(NS(=O)(=O)c3ccc4cc(OC)ccc4c3)cc2)c1
target-desc: UniProt:P00747
IC50: > 62 µM
--
input-smiles: N=C(N)c1ccc(/C=C2/N=C(c3ccccc3)OC2=O)cc1
target-desc: UniProt:P00747
IC50: > 100 µM
--
input-smiles: COC(=O)c1cccc(-c2ccc(NC(=O)c3ccc4cc(C(N)=O)ccc4c3)cc2)c1
target-desc: UniProt:P00747
IC50: > 125 µM

----------
target: Tissue-type plasminogen activator (Homo sapiens, UniProt P00750); assay: Inhibition of recombinant tPA using H-D-Ile-Pro-Arg-pNA.2HCl as substrate preincubated for 15 mins prior substrate addition measured for 10 mins by spectrophotometry
Sequence (P00750 whole entry): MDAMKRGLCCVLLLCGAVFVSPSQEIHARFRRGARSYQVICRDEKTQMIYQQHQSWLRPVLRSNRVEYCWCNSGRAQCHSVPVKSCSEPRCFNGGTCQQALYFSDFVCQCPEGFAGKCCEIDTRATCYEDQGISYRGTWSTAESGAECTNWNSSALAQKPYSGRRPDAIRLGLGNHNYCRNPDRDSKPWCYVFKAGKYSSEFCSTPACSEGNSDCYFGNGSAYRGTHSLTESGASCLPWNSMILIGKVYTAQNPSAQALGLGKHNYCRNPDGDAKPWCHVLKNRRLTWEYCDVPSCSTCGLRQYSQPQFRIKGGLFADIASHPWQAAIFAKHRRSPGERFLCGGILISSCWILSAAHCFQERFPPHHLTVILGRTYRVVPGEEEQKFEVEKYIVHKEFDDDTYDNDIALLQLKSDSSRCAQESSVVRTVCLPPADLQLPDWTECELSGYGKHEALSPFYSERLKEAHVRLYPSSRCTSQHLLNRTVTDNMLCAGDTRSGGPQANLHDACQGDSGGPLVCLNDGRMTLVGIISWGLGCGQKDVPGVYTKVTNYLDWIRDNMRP
pIC50: −log10 of the molar value.
Entries and their pIC50

input-smiles: [H]/N=C(\N)c1ccc2cc(C(=O)Nc3ccc(CN)cc3)ccc2c1
pIC50: < 4.21
//
input-smiles: N=C(N)c1ccc(/C=C2/N=C(c3ccccc3)OC2=O)cc1
pIC50: < 4.00
//
input-smiles: COc1ccc2cc(C(=O)Nc3ccc(-c4cccc(C(F)(F)F)c4)cc3)ccc2c1
pIC50: 5.28

----------
target: Urokinase-type plasminogen activator (Homo sapiens); assay: Inhibition of human uPA using pyroGlu-Gly-Arg-p-NA.HCl as substrate preincubated for 15 mins prior substrate addition measured for 10 mins by spectrophotometry
Quick rule for you: IC50 under 20 µM gets Condition met, anything else gets Condition not met.

input-smiles: COc1ccc(-c2ccc(NS(=O)(=O)c3ccc4cc(OC)ccc4c3)cc2OC)cc1
group: Condition met

input-smiles: N=C(N)c1ccc2cc(C(=O)Nc3ccccc3)ccc2c1
group: Condition met

input-smiles: COC(=O)c1cccc(-c2ccc(NC(=O)c3ccc4cc(Br)ccc4c3)cc2)c1
group: Condition met

input-smiles: COc1ccc2cc(S(=O)(=O)Nc3ccc(-c4ccc(OC)c(OC)c4)cc3)ccc2c1
group: Condition met

input-smiles: COC(=O)c1cccc(-c2ccc(NC(=O)c3ccc4cc(C#N)ccc4c3)cc2)c1
group: Condition met

input-smiles: NCc1ccc(NC(=O)c2ccc3cc(C(N)=O)ccc3c2)cc1
group: Condition not met

input-smiles: COC(=O)c1ccc(-c2ccc(NS(=O)(=O)c3ccc4ccccc4c3)cc2)cc1
group: Condition met

input-smiles: COC(=O)c1cccc(-c2ccc(NS(=O)(=O)c3ccc4ccccc4c3)cc2)c1
group: Condition met

input-smiles: COc1ccc(-c2ccc(NS(=O)(=O)c3ccc4cc(OC)ccc4c3)cc2)cc1
group: Condition not met

input-smiles: COc1cccc(-c2ccc(NS(=O)(=O)c3ccc4cc(OC)ccc4c3)cc2)c1
group: Condition met

input-smiles: Nc1ccc2cc(C(=O)Nc3ccccc3)ccc2c1
group: Condition not met

input-smiles: N#Cc1ccc2cc(C(=O)Nc3ccccc3)ccc2c1
group: Condition not met

input-smiles: COC(=O)c1ccc(-c2ccc(NS(=O)(=O)c3ccc4cc(OC)ccc4c3)cc2)cc1
group: Condition met

input-smiles: COc1ccc2cc(S(=O)(=O)Nc3ccc(-c4cccc(C(F)(F)F)c4)cc3)ccc2c1
group: Condition met

input-smiles: N#Cc1ccc2cc(C(=O)Nc3ccc(-c4cccc(C(=O)O)c4)cc3)ccc2c1
group: Condition not met

input-smiles: COc1cccc(-c2ccc(NS(=O)(=O)c3ccc4ccccc4c3)cc2)c1
group: Condition not met

input-smiles: COc1cccc(-c2ccc(NC(=O)c3ccc4ccccc4c3)cc2)c1
group: Condition met

input-smiles: COc1ccc2cc(S(=O)(=O)Nc3ccc(-c4cccc(F)c4)cc3)ccc2c1
group: Condition not met

input-smiles: COc1cccc(-c2ccc(NC(=O)c3ccc4cc(C(N)=O)ccc4c3)cc2)c1
group: Condition met
